biological target: UniProt:Q9WTR4; test: Inhibition of [3H]NE uptake in rat hypothalamus synaptosomes; format: biochemical; settings: rat hypothalamus synaptosomes, [3H]NE, 20 min, 37° C.; read-out: Inhibition of NE Uptake (IC50)
Sequence (Q9WTR4 1-597): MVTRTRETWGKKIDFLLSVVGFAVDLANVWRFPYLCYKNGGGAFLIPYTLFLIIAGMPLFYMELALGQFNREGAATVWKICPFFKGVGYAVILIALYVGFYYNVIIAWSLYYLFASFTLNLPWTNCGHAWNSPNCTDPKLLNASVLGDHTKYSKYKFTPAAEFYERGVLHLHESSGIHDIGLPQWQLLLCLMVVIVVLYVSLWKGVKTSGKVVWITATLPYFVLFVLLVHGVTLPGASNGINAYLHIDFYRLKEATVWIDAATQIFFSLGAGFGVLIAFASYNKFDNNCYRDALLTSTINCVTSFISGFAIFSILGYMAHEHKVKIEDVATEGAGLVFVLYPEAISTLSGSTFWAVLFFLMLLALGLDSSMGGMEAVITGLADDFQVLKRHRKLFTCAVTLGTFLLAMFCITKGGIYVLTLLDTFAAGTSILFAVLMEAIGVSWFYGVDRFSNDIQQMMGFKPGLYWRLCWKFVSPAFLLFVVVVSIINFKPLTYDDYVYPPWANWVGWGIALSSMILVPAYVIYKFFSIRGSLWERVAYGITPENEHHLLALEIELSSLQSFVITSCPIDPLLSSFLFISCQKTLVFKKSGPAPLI
Recorded metric: pIC50
The quantity pIC50 is defined as the negative base-10 logarithm of the molar concentration.

Before answering, review these 4 worked examples.
                                   compound  assayed_system  recorded_metric  value_observed
0  Cc1ccc(C23CNCC2C3)cc1.Cl (stereo not drawn) [bicifadine, hydrochloride, reference compound]  UniProt:Q9WTR4            pIC50            6.89
1  CN1CC2CC2(c2ccc(C(F)(F)F)cc2)C1 (stereo not drawn)  UniProt:Q9WTR4            pIC50            5.59
2  CCCN1CC2CC2(c2ccc(C)cc2)C1 (stereo not drawn)  UniProt:Q9WTR4            pIC50            5.85
3  Cc1ccc(C23CC2CN(C(C)(C)C)C3)cc1 (stereo not drawn)  UniProt:Q9WTR4            pIC50            5.57

// sample COCCN1CC2CC2(c2ccc(C)cc2)C1 (stereo not drawn) , its pIC50 was 5.19

// sample Cc1ccc(C23CC2CN(C(C)C)C3)cc1 (stereo not drawn) , its pIC50 was 6.64

---

Catalogue of compounds with associated pIC50
molecular target: dopamine (DA) transporter (Rattus norvegicus, UniProt P23977); experiment: Inhibition of [3H]DA uptake in rat striatum synaptosomes; assay type: biochemical
Sequence (P23977 whole entry): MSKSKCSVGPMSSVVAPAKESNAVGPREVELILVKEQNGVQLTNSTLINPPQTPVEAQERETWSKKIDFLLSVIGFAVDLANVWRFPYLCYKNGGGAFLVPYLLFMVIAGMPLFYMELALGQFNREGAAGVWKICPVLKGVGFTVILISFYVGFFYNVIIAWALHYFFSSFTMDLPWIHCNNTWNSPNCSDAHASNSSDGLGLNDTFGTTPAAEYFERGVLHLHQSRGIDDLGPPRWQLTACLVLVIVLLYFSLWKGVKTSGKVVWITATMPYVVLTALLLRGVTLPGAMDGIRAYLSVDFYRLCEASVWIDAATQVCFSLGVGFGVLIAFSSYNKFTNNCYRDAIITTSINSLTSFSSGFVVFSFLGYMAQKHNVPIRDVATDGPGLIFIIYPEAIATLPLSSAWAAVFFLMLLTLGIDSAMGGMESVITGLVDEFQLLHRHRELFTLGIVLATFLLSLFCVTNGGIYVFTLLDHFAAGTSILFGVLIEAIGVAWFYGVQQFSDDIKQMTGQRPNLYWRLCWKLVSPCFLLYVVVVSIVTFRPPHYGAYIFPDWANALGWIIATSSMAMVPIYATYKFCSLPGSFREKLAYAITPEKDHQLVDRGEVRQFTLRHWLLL
The quantity pIC50 is defined as the negative base-10 logarithm of the molar concentration.

Before answering, review these 2 worked examples.
In [3]: df
Out[3]:
                                   compound  value_observed
0  CN1CC2CC2(c2ccc(F)cc2)C1 (stereo not shown) [CH3,4-F]            5.42
1  CN1CC2CC2(c2cccc(Cl)c2)C1 (stereo not shown) [CH3,3-Cl]            5.89

Alright, here's another compound for you.
// sample Cc1ccc(C23CC2CN(C)C3)cc1 (stereo not shown) [CH3,4-CH3] , its pIC50 was 6.02

---

biological target: serotonin (5-HT) transporter (Rattus norvegicus, UniProt P31652); assay: Inhibition of [3H]5-HT uptake in rat whole brain synaptosomes; assay type: biochemical
Sequence (P31652 whole entry): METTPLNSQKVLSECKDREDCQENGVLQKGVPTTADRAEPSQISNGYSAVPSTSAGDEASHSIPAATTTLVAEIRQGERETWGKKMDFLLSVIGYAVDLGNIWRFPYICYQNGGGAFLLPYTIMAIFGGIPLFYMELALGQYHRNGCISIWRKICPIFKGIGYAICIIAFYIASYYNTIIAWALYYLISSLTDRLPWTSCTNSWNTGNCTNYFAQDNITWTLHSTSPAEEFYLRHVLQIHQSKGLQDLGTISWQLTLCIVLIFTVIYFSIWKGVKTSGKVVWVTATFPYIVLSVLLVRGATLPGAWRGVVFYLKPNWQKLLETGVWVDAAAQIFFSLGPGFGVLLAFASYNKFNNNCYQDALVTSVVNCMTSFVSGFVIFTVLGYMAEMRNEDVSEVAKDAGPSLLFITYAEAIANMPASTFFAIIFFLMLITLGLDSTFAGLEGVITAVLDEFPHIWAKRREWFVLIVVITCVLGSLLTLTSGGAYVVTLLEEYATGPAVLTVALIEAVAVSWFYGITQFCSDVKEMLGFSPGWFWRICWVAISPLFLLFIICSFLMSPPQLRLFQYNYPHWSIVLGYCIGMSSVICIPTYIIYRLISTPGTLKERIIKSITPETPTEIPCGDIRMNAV
Catalogue of molecules with associated IC50
Quick reminder: number only, in µM, skip the unit.

Before answering, review these 3 worked examples.
>>> df
                                   molecule                            assayed_system  value_observed
0  CCN1CC2CC2(c2ccc(C)cc2)C1 (stereo not shown)  serotonin (5-HT) transporter (Rattus norvegicus, UniProt P31652)            0.24
1  CN1CC2CC2(c2ccc(F)cc2)C1 (stereo not shown)  serotonin (5-HT) transporter (Rattus norvegicus, UniProt P31652)             3.4
2  Cc1ccc(C23CC2CN(C)C3)cc1 (stereo not shown)  serotonin (5-HT) transporter (Rattus norvegicus, UniProt P31652)            0.19

Alright, here's another molecule for you.
// sample CN1CC2CC2(c2cccc(Cl)c2)C1 (stereo not shown) , its IC50 was 0.27
